The reported measurements were obtained from ChEMBL document CHEMBL1201862.

Attribute: GI50
- Test system: ACHN
- Assay: NCI tumour cell line growth inhibition, 48 h
Active and inactive are the calls of the source. Cut-off read from the data, not from the text of the source: active = GI50 up to about 1.1 µM and inactive = higher.

Known results for compounds:
Q: For the compound COc1nc(=O)n(COC(CO)CN2C(=O)c3ccccc3C2=O)cc1Cc1cccc(OCc2ccccc2)c1 (stereo unspecified) , give its measured GI50 value.
Ans: 23.7 µM (inactive)

Q: Consider the compound NC(CCCC(N)P(=O)(O)O)P(=O)(O)O (stereo unspecified) and give its recorded GI50.
Ans: > 100 µM (inactive)

Q: Give the reported GI50 for this compound. N=c1oc2ccc3ccccc3c2cc1C(N)=O
Ans: 24.9 µM (inactive)

Q: Look up and report measured GI50 for this entry: C=C1C(=O)O[C@@H]2C(=O)[C@@H](C)CCC/C(C)=C/CC[C@@]3(C)O[C@@H]3C[C@@H]12
Ans: 36.9 µM (inactive)

Q: Return GI50 for the following compound: CCOC(=O)Cn1c(=O)n(C)c(=O)c2[nH]cnc21
Ans: > 100 µM (inactive)

Attention now turns to another entry.
Q: Given Cc1ccc(/C=C/c2n[nH]c(N/N=C/c3ccc4c(c3)OCO4)nc2=O)cc1 , respond with its GI50.
Ans: 25.2 µM (inactive)
